Attribute: TGI
# Test system: RXF 393 renal
# methodDescription: NCI tumour cell line growth inhibition, 48 h
outcomeMeasure: TGI (µM)

>>> observedmeasurement("COc1cc(NS(C)(=O)=O)ccc1NCc1c2ccccc2nc2ccccc12")
57.5
>>> observedmeasurement("COC1=C(Cl)C(=O)c2c(O)ccc(O)c2C1=O")
2.69

----------
# Tested on: HCT-116 colon
# methodDescription: NCI tumour cell line growth inhibition, 48 h; in the data active = GI50 below about 0.43 µM; inactive = the rest
Outcomes: YES (active), NO (inactive)

>>> assignedlabel("C[C@H]1CNC(=O)c2cnn3ccc(nc23)N[C@H](C)c2cc(F)ccc2O1")
"NO"
>>> assignedlabel("CC(=O)O[C@H]1C(=O)[C@@]2(C)[C@H]([C@H](OC(=O)c3ccccc3)[C@]3(O)C[C@H](OC(=O)[C@H](OC(=O)OC[C@H]4COC(C)(C)O4)[C@@H](NC(=O)c4ccccc4)c4ccccc4)C(C)=C1C3(C)C)[C@]1(OC(C)=O)CO[C@@H]1C[C@@H]2O")
"YES"
>>> assignedlabel("O=C(CI)Nc1ccc(O)c2ccccc12")
"NO"
>>> assignedlabel("O=C(c1ccco1)c1c(C(F)(F)F)n([O-])c2cc(C(F)(F)F)ccc2[n+]1=O")
"YES"
>>> assignedlabel("O=C1C(=O)c2ccccc2C(O)=C1CCCc1ccc(C2CCCCC2)cc1")
"NO"
>>> assignedlabel("O=CN1N=C(c2cccc(Nc3ccnc4cc(Cl)ccc34)c2)CC1c1ccccc1 (stereo unspecified)")
"YES"

----------
# Test system: HOP-62 NSCLC
# methodDescription: NCI tumour cell line growth inhibition, 48 h
Attribute: TGI
outcomeMeasure: TGI

>>> observedmeasurement("CCCCc1ccc(Nc2nc(Cl)c3c(ncn3C3CC(Oc4ccc(C)cc4)C(COc4ccc(C)cc4)O3)n2)cc1 (centres undefined)")
"> 100 µM"
>>> observedmeasurement("COC(=O)C1CCC(=O)N1C(c1cc(OC)c(OC)c(OC)c1)c1cccc2ccccc12 (centres undefined)")
"> 100 µM"
>>> observedmeasurement("CO/N=C(\\C([O-])=N\\[n+]1cnn(CC(=O)OC(C)(C)C)c1)c1csc(NC(c2ccccc2)(c2ccccc2)c2ccccc2)n1")
"> 10 µM"
>>> observedmeasurement("Cc1cc(OCCOCCC(F)(F)P(=O)(O)O)ccc1CCc1cnc2c(N)nc3cc(CCC(=O)O)ccc3c2c1")
"> 100 µM"

----------
# Test system: SK-MEL-5 melanoma
# methodDescription: NCI tumour cell line growth inhibition, 48 h
*1 amine or outer side, *2 acyl side, *3 side chain or, on linkers, in order; H or OH if unused. Where a SMILES comes first, the peptide text is derived from it. Bridges are numbered along the chain shown (N, C = ends). Roman numbers before positions name the chains, in order. [ ]: non-standard residue; d: D form. Actinocin(9to1) = Cc1c2oc3c(C)ccc(C(=O)[*:1])c3nc-2c(C(=O)[*:2])c(N)c1=O; Hyp = O=C(O)[CH]1C[CH](O)CN1; NMeV = CN[CH](C(=O)O)C(C)C; Sar = CNCC(=O)O
Attribute: TGI
outcomeMeasure: TGI

>>> observedmeasurement("COc1ccc(/C=C2\\SC(=Nc3ccccc3)NC2=O)cc1")
"30.5 µM"
>>> observedmeasurement("CO/N=C(\\C([O-])=N\\[n+]1cnn(CC(=O)OC(C)(C)C)c1)c1csc(NC(c2ccccc2)(c2ccccc2)c2ccccc2)n1")
"> 10 µM"
>>> observedmeasurement("Cc1c2oc3c(C)ccc(C(=O)NC4C(=O)NC(C(C)C)C(=O)N5CC(O)CC5C(=O)N(C)CC(=O)N(C)C(C(C)C)C(=O)OC4C)c3nc-2c(C(=O)NC2C(=O)NC(C(C)C)C(=O)N3CC(O)CC3C(=O)N(C)CC(=O)N(C)C(C(C)C)C(=O)OC2C)c(N)c1=O (configuration not stated) (I: TV[Hyp][Sar][NMeV] / II: TV[Hyp][Sar][NMeV]; ester I:1-I:C, II:1-II:C; linker I:N-II:N via Actinocin(9to1); configuration not given here)")
"> 1 µM"
>>> observedmeasurement("CC1=NOC(=O)/C1=C/c1ccc([N+](=O)[O-])cc1")
"> 100 µM"
>>> observedmeasurement("CC(C(=O)c1ccncc1)c1ccccn1 (configuration not stated)")
"> 100 µM"
>>> observedmeasurement("Cc1nc2c(cc1OCc1ccccc1)C(=O)C1=C(C2=O)C2OC(=O)CC2OC1(C)C (configuration not stated)")
"2.61 µM"
>>> observedmeasurement("COC(=O)c1c(C)cccc1C1CN=NC12Cc1cc(C)cc(C)c1C2=O (configuration not stated)")
"44.6 µM"

----------
# System: SF-295 CNS
# methodDescription: NCI tumour cell line growth inhibition, 48 h
*1 amine or outer side, *2 acyl side, *3 side chain or, on linkers, in order; H or OH if unused. Where a SMILES comes first, the peptide text is derived from it. Bridges are numbered along the chain shown (N, C = ends). Roman numbers before positions name the chains, in order. [ ]: non-standard residue; d: D form. Actinocin(9to1) = Cc1c2oc3c(C)ccc(C(=O)[*:1])c3nc-2c(C(=O)[*:2])c(N)c1=O; Hyp = O=C(O)[CH]1C[CH](O)CN1; NMeV = CN[CH](C(=O)O)C(C)C; Sar = CNCC(=O)O
Attribute: TGI
outcomeMeasure: TGI

>>> observedmeasurement("O=C1CSC(c2ccc([N+](=O)[O-])cc2)N1c1ccc(-c2ccc(-n3c(-c4ccccc4)nc4ccccc4c3=O)cc2)cc1 (stereo not drawn)")
"> 100 µM"
>>> observedmeasurement("NCCNC(=O)c1cccc2cc3ccccc3nc12")
"> 20.9 µM"
>>> observedmeasurement("Cc1c2oc3c(C)ccc(C(=O)NC4C(=O)NC(C(C)C)C(=O)N5CC(O)CC5C(=O)N(C)CC(=O)N(C)C(C(C)C)C(=O)OC4C)c3nc-2c(C(=O)NC2C(=O)NC(C(C)C)C(=O)N3CC(O)CC3C(=O)N(C)CC(=O)N(C)C(C(C)C)C(=O)OC2C)c(N)c1=O (stereo not drawn) (I: TV[Hyp][Sar][NMeV] / II: TV[Hyp][Sar][NMeV]; ester I:1-I:C, II:1-II:C; linker I:N-II:N via Actinocin(9to1); configuration not given here)")
"> 1 µM"
>>> observedmeasurement("O=C1CC(=O)NC(=NN2C(=O)CSC2C(=O)c2ccco2)N1 (stereo not drawn)")
"> 100 µM"
>>> observedmeasurement("CCCCCCCCP(=O)(O)OP(=O)(O)OCC1OC(n2ccc(N)nc2=O)C(O)C1O (stereo not drawn)")
"> 100 µM"
>>> observedmeasurement("C#CC1(O)CCC2[C@@H]3CCc4cc(Oc5nc(F)nc(-c6c7ccccc7c(SCC)n6CCC)n5)ccc4C3CC[C@@]21C (stereo partly drawn)")
"> 100 µM"
>>> observedmeasurement("O=S(=O)(N=NC=C1c2ccccc2N(O)c2ccccc21)c1ccc(Cl)cc1")
"> 100 µM"
>>> observedmeasurement("COc1c(Br)cc2ccccc2c1-c1c(OC)c(Br)cc2ccccc12")
"> 100 µM"

----------
Attribute: TGI
# Test system: HT29 colon
# methodDescription: NCI tumour cell line growth inhibition, 48 h
outcomeMeasure: TGI

>>> observedmeasurement("CCCCSC1=N/C(=C\\c2ccc(N(C)C)cc2)C(=O)N1")
"36.8 µM"
>>> observedmeasurement("CC1=NOC(=O)/C1=C/c1ccc([N+](=O)[O-])cc1")
"> 100 µM"
>>> observedmeasurement("NC(=O)c1cccc(OCC(O)CO)c1 (centres undefined)")
"> 100 µM"
>>> observedmeasurement("Cc1cc(S(=O)(=O)Nc2nncn2-c2ccc(Cl)cc2)c(S)cc1Cl")
"> 10 µM"

----------
# Tested on: UACC-62 melanoma
# methodDescription: NCI tumour cell line growth inhibition, 48 h; in the data active = GI50 below about 0.43 µM; inactive = the rest
Outcomes: active, inactive

>>> assignedlabel("COc1cc(C(=O)O[C@H](C(=O)NCCN(C)CCNC(=O)[C@@H](OC(=O)c2cc(OC)cc3c(C)cccc23)[C@]2(C)CO2)[C@]2(C)CO2)c2cccc(C)c2c1")
"active"
>>> assignedlabel("COc1ccc(NC(=O)c2sc3nc(C)c(C(=O)/C=C/c4cccc(OC)c4)cc3c2N)cc1")
"inactive"
>>> assignedlabel("CCCCCCCCCCCCCC[n+]1ccc(C(N)=O)cc1")
"inactive"
>>> assignedlabel("Cc1nc2ccccn2c1NC(=O)NNC(=S)Nc1ccc(F)cc1")
"inactive"
>>> assignedlabel("COC(=O)CCNc1c2ccccc2nc2cccc([N+](=O)[O-])c12")
"active"
>>> assignedlabel("N#C/C(=N\\Nc1ccccc1)C(=O)Nc1cc(-c2ccccc2)nn1-c1ccccc1")
"inactive"
>>> assignedlabel("CC(=O)/C=C/C1=C(c2csc3ccccc23)c2ccccc2CC1")
"inactive"
>>> assignedlabel("C=C1SC(=Nc2ccccc2Cl)N(C(=O)c2sc3ccccc3c2Cl)C12CCCCC2")
"inactive"
>>> assignedlabel("CC(=O)O[C@H]1C(=O)[C@@]2(C)[C@H]([C@H](OC(=O)c3ccccc3)[C@]3(O)C[C@H](OC(=O)[C@H](OC(=O)OC[C@H]4COC(C)(C)O4)[C@@H](NC(=O)c4ccccc4)c4ccccc4)C(C)=C1C3(C)C)[C@]1(OC(C)=O)CO[C@@H]1C[C@@H]2O")
"active"
>>> assignedlabel("O=C(CI)Nc1ccc(O)c2ccccc12")
"inactive"
